Tested on: UACC-62
Assay: NCI tumour cell line growth inhibition, 48 h
Active and inactive are the calls of the source. Rule as the data show it: active = GI50 up to about 1.1 µM and inactive = higher.
Outcomes: class 1 (active), class 0 (inactive)

# compound, class_assignment
measured = [
    ("Oc1ccc(Cn2c(-c3ccc(O)cc3)nc3ccccc32)cc1", "class 0"),
    ("CCOC(=O)C(NC(=O)c1cccc(Cl)c1)(Nc1cccc(C)c1)C(F)(F)F (stereo unspecified)", "class 0"),
    ("COC(=O)Nc1nc2cc(NC(=O)c3cccs3)ccc2[nH]1", "class 0"),
    ("COc1cccc(NC(=S)Nn2c(C)nc3ccccc3c2=O)c1", "class 0"),
    ("C=C1C(=O)O[C@H]2C[C@@H]1[C@@H](O)[C@H](O)[C@@H](C)CCCC(C)=CCC[C@@]2(C)O", "class 0"),
    ("COC(=O)c1c2c(cc3c1CC1(Cc4ccc(C(C)=O)cc4C1)C3)CCC2 (stereo unspecified)", "class 0"),
    ("COC(=O)c1c(C(=O)OC)c2ccccn2c1-c1cc(C)cc2c1C(=O)C=CC2=O", "class 0"),
    ("CCOC(OCC)[C@@H]1C[C@@H]2N(O[C@H](OC3CCCC3(c3ccccc3)c3ccccc3)[C@H](OC(C)=O)[C@@]2(CC)Cc2ccc(OC)c(OC)c2)O1 (stereo partly specified)", "class 0"),
    ("O=C(CN1CCOCC1)CC(O)(C(F)(F)F)C(F)(F)F", "class 0"),
    ("CC(=O)OC1C=C(C=O)C(O)(C=O)C2(C)CCCC(C)(C)C12 (stereo unspecified)", "class 0"),
    ("CCCCN(CCCC)CC(O)c1cc(-c2ccc(C(F)(F)F)cc2)nc(-c2ccc(C(F)(F)F)cc2)c1 (stereo unspecified)", "class 0"),
    ("Cn1c(S)nnc1-c1csc(-c2ccc(Cl)cc2)n1", "class 0"),
    ("CN1C(CC(O)c2ccccc2)CCCC1CC(O)(c1ccccc1)c1ccccc1 (stereo unspecified)", "class 0"),
    ("Oc1ccc(Cl)cc1C1=Nn2c(COc3ccc4c(c3)CCCC4)nnc2SC1", "class 0"),
    ("O=C1c2c(O)cccc2C(C2OC(CO)C(O)C(O)C2O)c2cc(CO)cc(O)c21 (stereo unspecified)", "class 0"),
    ("C(=C/CCCN1O[C@@H](CCCCCCCCc2cccnc2)[C@H]2CCC[C@H]21)/CCCCCCCCCc1cccnc1", "class 0"),
    ("O=P1(C(O)/C=C/c2ccccc2)N(Cc2ccccc2)[C@H](c2ccccc2)[C@@H](c2ccccc2)N1Cc1ccccc1 (stereo partly specified)", "class 0"),
    ("COc1cc(OC)c2c(=O)cc(-c3ccc(OC)c(OC)c3OC)oc2c1", "class 0"),
    ("C1=C2C3=[N+](CCCC3)CC2Cc2ccsc21 (stereo unspecified)", "class 0"),
    ("C=CCNC(=S)OCCCCCCCCCC", "class 0"),
    ("Cc1cc2c(=O)n(-c3ccc(F)cc3)c(C)nc2c(C(=O)O)c1C", "class 0"),
    ("CN(C(=O)C12C3C4C1C1C2C3C41C#N)C(C)(C)C (stereo unspecified)", "class 0"),
    ("O=C1CSC(c2ccc([N+](=O)[O-])cc2)N1c1ccc(-n2c(-c3ccccc3)nc3ccccc3c2=O)cc1 (stereo unspecified)", "class 0"),
    ("CCN(CC)C(=O)C(C)n1cc(C)c(=O)[nH]c1=O (stereo unspecified)", "class 0"),
    ("CCc1cccc(C(C)CC)c1NC(=O)CC1C(=O)Nc2ccccc2S1(=O)=O (stereo unspecified)", "class 0"),
    ("CC1CCC(=O)NCCCCC(=O)N1 (stereo unspecified)", "class 0"),
    ("O=C(O)c1c[nH]cc1C(=O)O", "class 0"),
    ("CC(C)c1cccc(C(C)C)c1NC(=O)C(=O)C(C(=O)c1ccccc1-c1ccccc1)C1OC(=O)c2ccccc21 (stereo unspecified)", "class 0"),
    ("CC(C)(C)c1cc(CCCCCCCC2(CCCCCCCc3cc(C(C)(C)C)cc(C(C)(C)C)c3)OC(COCCOCCCCCC#N)C(COCCOCCCCCC#N)O2)cc(C(C)(C)C)c1 (stereo unspecified)", "class 0"),
    ("Cc1n(CC(C)C)c2c([n+]1C)C(=O)c1ccccc1C2=O", "class 1"),
    ("NC(=S)SC1=NC(=O)C2(NN1)c1ccccc1-c1ccccc12", "class 0"),
    ("O=P1(c2ccccc2)c2ccccc2CCc2ccccc21", "class 0"),
    ("O=C(O)CSc1cc(-c2ccccc2)nc2ccccc12", "class 0"),
    ("C#CC1(O)CCC2[C@@H]3CCc4cc(Oc5nc(F)nc(-c6c7ccccc7c(SCC)n6CCC)n5)ccc4C3CC[C@@]21C (stereo partly specified)", "class 0"),
    ("CCSc1nc(COC(=O)NC)c(COC(=O)NC)n1C", "class 0"),
    ("O=C1C(Cl)=C(Cl)C(=O)N1c1ccccc1Cl", "class 0"),
    ("CC(C)(C)n1c(=O)n2c(-c3ccccc3)c(-c3ccccc3)n2c1=O", "class 0"),
    ("O=C(O)CCC(=O)c1ccc2sc3ccccc3c2c1", "class 0"),
    ("CC(=O)OCC1OC(N=[N+]=[N-])C(OC(C)=O)C(OC(C)=O)C1OC1OC(COC(C)=O)C(OC(C)=O)C(OC(C)=O)C1OC(C)=O (stereo unspecified)", "class 0"),
    ("COc1ccc(OC)c(/C=C2/C(=O)N/C(=N\\C(C)=O)N2C)c1", "class 0"),
    ("COc1ccc(NC(=S)c2ccoc2C)cc1CC(=O)OC(C)C", "class 0"),
]
